# experimental_context: in chloroform, 327.95 K
metric_name: solubility (mole fraction)

May I ask what solubility (mole fraction) has been recorded for NC(=O)N1c2ccccc2C=Cc2ccccc21 ? 0.0968

---

# experimental_context: in methyl acetate, 301.85 K
metric_name: solubility (mole fraction)
Just the number, please.

May I ask what solubility (mole fraction) has been recorded for NC(=O)N1c2ccccc2C=Cc2ccccc21 ? 0.00843

---

# experimental_context: in chloroform, 288.65 K
metric_name: solubility (mole fraction)

May I ask what solubility (mole fraction) has been recorded for NC(=O)N1c2ccccc2C=Cc2ccccc21 ? 0.0627

---

# experimental_context: in ethyl acetate, 298.55 K
metric_name: solubility (mole fraction)
Just the number, please.

May I ask what solubility (mole fraction) has been recorded for NC(=O)N1c2ccccc2C=Cc2ccccc21 ? 0.00436

Data origin: BigSolDB 2.1
